test: AUC last in mouse at 10 mg/kg, po; format: ADME, organism-based; conditions: in vivo

[
  {
    "compound": "O=C1CCC(N2Cc3cc(CNC(=O)C4=Cc5cc(OC(F)(F)F)ccc5OC4)ccc3C2=O)C(=O)N1 (stereo unspecified)",
    "AUC(0-t)": "6150 ng·h/mL"
  }
]

---

assay: AUC last in Sprague-Dawley rat at 2 mg/kg, iv; format: ADME, organism-based; conditions: in vivo
AUC(0-t) values for the compounds below.

[
  {
    "compound": "O=C1CCC(N2Cc3cc(CNC(=O)C4COc5ccccc5C4)ccc3C2=O)C(=O)N1 (stereo not drawn)",
    "AUC(0-t) / ng·h/mL": 623
  },
  {
    "compound": "Cc1ccc(C/C(=N\\O)C(=O)NCc2ccc3c(c2)CN(C2CCC(=O)NC2=O)C3=O)cc1Cl (stereo not drawn)",
    "AUC(0-t) / ng·h/mL": 1110
  },
  {
    "compound": "CO/N=C(\\Cc1ccc(C)c(Cl)c1)C(=O)NCc1ccc2c(c1)CN(C1CCC(=O)NC1=O)C2=O (stereo not drawn)",
    "AUC(0-t) / ng·h/mL": 802
  }
]

---

experiment: Half life in Beagle dog at 10 mg/kg, po; assay type: ADME, organism-based, Canis lupus familiaris; conditions: in vivo

[
  {
    "compound": "O=C1CCC(N2Cc3cc(CNC(=O)C4=Cc5cc(OC(F)(F)F)ccc5OC4)ccc3C2=O)C(=O)N1 (stereo unspecified)",
    "half-life, h": 4.58
  }
]

---

half-life values for the molecules below.
experiment: Metabolic stability in rat liver microsomes assessed as half life; assay type: ADME, Microsome; conditions: liver microsomes
endpoint.label: half-life (min)

[
  {
    "molecule": "CO/N=C(\\Cc1ccc(C)c(Cl)c1)C(=O)NCc1ccc2c(c1)CN(C1CCC(=O)NC1=O)C2=O (stereo not drawn)",
    "endpoint.label": "half-life",
    "quantitative.readout": 2.44
  },
  {
    "molecule": "COc1cccc2c1OCC(C(=O)NCc1ccc3c(c1)CN(C1CCC(=O)NC1=O)C3=O)=C2 (stereo not drawn)",
    "endpoint.label": "half-life",
    "quantitative.readout": 212
  },
  {
    "molecule": "O=C1CCC(N2Cc3cc(CNC(=O)C4COc5ccc(OC(F)(F)F)cc5C4)ccc3C2=O)C(=O)N1 (stereo not drawn)",
    "endpoint.label": "half-life",
    "quantitative.readout": 43.5
  },
  {
    "molecule": "O=C1CCC(N2Cc3cc(CNC(=O)C(F)(F)c4ccc(Cl)cc4)ccc3C2=O)C(=O)N1 (stereo not drawn)",
    "endpoint.label": "half-life",
    "quantitative.readout": 56
  },
  {
    "molecule": "Cc1ccc(C/C(=N\\O)C(=O)NCc2ccc3c(c2)CN(C2CCC(=O)NC2=O)C3=O)cc1Cl (stereo not drawn)",
    "endpoint.label": "half-life",
    "quantitative.readout": 11.4
  },
  {
    "molecule": "CC(C)(C)c1ccc2c(c1)C=C(C(=O)NCc1ccc3c(c1)CN(C1CCC(=O)NC1=O)C3=O)CO2 (stereo not drawn)",
    "endpoint.label": "half-life",
    "quantitative.readout": 19.7
  },
  {
    "molecule": "O=C1CCC(N2Cc3cc(CNC(=O)C4=Cc5cccc(OC(F)(F)F)c5OC4)ccc3C2=O)C(=O)N1 (stereo not drawn)",
    "endpoint.label": "half-life",
    "quantitative.readout": 227
  },
  {
    "molecule": "O=C1CCC(N2Cc3cc(CNC(=O)C4=Cc5cccc(F)c5OC4)ccc3C2=O)C(=O)N1 (stereo not drawn)",
    "endpoint.label": "half-life",
    "quantitative.readout": 311
  }
]

---

molecular target: hERG (KCNH2) (Homo sapiens, UniProt Q12809); test: Inhibition of human ERG at 10 uM relative to control; format: toxicity
Sequence (Q12809 whole entry): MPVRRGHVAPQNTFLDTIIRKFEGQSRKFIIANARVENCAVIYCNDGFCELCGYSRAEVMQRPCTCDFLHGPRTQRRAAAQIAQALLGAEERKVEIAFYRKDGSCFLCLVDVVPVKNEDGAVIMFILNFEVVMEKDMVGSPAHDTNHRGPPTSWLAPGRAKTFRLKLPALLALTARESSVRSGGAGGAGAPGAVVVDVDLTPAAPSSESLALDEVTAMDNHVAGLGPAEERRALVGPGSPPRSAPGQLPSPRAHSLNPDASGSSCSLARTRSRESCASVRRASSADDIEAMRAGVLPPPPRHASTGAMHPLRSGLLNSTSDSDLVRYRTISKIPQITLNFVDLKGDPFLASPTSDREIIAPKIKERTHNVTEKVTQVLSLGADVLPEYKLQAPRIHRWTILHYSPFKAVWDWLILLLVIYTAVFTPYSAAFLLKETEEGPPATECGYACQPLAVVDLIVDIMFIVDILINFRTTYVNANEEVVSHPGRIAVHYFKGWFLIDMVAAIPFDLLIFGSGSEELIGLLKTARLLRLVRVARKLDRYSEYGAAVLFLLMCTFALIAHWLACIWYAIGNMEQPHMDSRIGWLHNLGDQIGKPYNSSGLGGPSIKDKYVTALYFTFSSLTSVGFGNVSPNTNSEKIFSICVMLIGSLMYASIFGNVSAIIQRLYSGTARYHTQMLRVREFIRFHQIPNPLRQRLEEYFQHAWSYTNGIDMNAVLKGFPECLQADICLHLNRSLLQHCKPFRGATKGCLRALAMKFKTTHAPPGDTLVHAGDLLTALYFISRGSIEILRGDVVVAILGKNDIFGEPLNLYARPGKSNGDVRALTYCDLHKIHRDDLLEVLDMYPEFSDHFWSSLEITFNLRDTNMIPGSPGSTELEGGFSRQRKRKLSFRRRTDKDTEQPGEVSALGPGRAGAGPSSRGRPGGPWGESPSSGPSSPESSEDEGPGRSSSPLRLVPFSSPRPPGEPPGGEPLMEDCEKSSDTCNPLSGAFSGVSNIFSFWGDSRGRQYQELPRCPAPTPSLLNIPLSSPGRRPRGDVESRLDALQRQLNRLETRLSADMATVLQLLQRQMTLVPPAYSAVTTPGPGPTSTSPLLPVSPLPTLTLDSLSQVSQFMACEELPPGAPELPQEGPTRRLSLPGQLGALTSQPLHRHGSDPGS
inhibition at 10 µM values for the molecules below.

[
  {
    "molecule": "O=C1CCC(N2Cc3ccc(COC(=O)Nc4cc(OC(F)(F)F)ccc4F)cc3C2=O)C(=O)N1 (configuration not stated)",
    "study.target": "hERG (KCNH2) (Homo sapiens, UniProt Q12809)",
    "inhibition at 10 µM / %": 62
  },
  {
    "molecule": "O=C1CCC(N2Cc3cc(CNC(=O)C(F)(F)c4ccc(Cl)cc4)ccc3C2=O)C(=O)N1 (configuration not stated)",
    "study.target": "hERG (KCNH2) (Homo sapiens, UniProt Q12809)",
    "inhibition at 10 µM / %": 85.4
  }
]

---

assay: Tmax in mouse at 10 mg/kg, po; assay type: ADME, organism-based; conditions: in vivo

[
  {
    "molecule": "O=C1CCC(N2Cc3cc(CNC(=O)C4=Cc5cc(OC(F)(F)F)ccc5OC4)ccc3C2=O)C(=O)N1 (stereo unspecified)",
    "measure.unit": "min",
    "Tmax": 24.6
  }
]

---

assay: AUC infinity in Sprague-Dawley rat at 10 mg/kg, po; format: ADME, organism-based; settings: in vivo
AUC(0-inf) values for the compounds below.

[
  {
    "compound": "O=C1CCC(N2Cc3cc(CNC(=O)C4=Cc5cccc(F)c5OC4)ccc3C2=O)C(=O)N1 (configuration not stated)",
    "AUC(0-inf), ng·h/mL": 2290
  },
  {
    "compound": "COc1cccc2c1OCC(C(=O)NCc1ccc3c(c1)CN(C1CCC(=O)NC1=O)C3=O)=C2 (configuration not stated)",
    "AUC(0-inf), ng·h/mL": 3340
  },
  {
    "compound": "O=C1CCC(N2Cc3ccc(COC(=O)Nc4cc(OC(F)(F)F)ccc4F)cc3C2=O)C(=O)N1 (configuration not stated)",
    "AUC(0-inf), ng·h/mL": 26000
  },
  {
    "compound": "O=C1CCC(N2Cc3cc(CNC(=O)C4=Cc5cccc(C(F)(F)F)c5OC4)ccc3C2=O)C(=O)N1 (configuration not stated)",
    "AUC(0-inf), ng·h/mL": 1480
  },
  {
    "compound": "O=C1CCC(N2Cc3cc(CNC(=O)C4=Cc5cccc(OC(F)(F)F)c5OC4)ccc3C2=O)C(=O)N1 (configuration not stated)",
    "AUC(0-inf), ng·h/mL": 3320
  },
  {
    "compound": "O=C1CCC(N2Cc3cc(CNC(=O)C4COc5ccccc5C4)ccc3C2=O)C(=O)N1 (configuration not stated)",
    "AUC(0-inf), ng·h/mL": 385
  },
  {
    "compound": "CO/N=C(\\Cc1ccc(C)c(Cl)c1)C(=O)NCc1ccc2c(c1)CN(C1CCC(=O)NC1=O)C2=O (configuration not stated)",
    "AUC(0-inf), ng·h/mL": 1110
  }
]

---

clearance values for the compounds below.
experiment: Clearance in Sprague-Dawley rat at 2 mg/kg, iv; assay type: ADME, organism-based; settings: in vivo
endpoint.label: clearance (mL/min/kg)

[
  {
    "compound": "O=C1CCC(N2Cc3ccc(COC(=O)Nc4cc(OC(F)(F)F)ccc4F)cc3C2=O)C(=O)N1 (configuration not stated)",
    "measure.unit": "mL/min/kg",
    "quantitative.readout": 4.6
  },
  {
    "compound": "O=C1CCC(N2Cc3cc(CNC(=O)C4=Cc5cccc(C(F)(F)F)c5OC4)ccc3C2=O)C(=O)N1 (configuration not stated)",
    "measure.unit": "mL/min/kg",
    "quantitative.readout": 12.3
  },
  {
    "compound": "O=C1CCC(N2Cc3cc(CNC(=O)C4=Cc5cccc(OC(F)(F)F)c5OC4)ccc3C2=O)C(=O)N1 (configuration not stated)",
    "measure.unit": "mL/min/kg",
    "quantitative.readout": 8.1
  },
  {
    "compound": "CO/N=C(\\Cc1ccc(C)c(Cl)c1)C(=O)NCc1ccc2c(c1)CN(C1CCC(=O)NC1=O)C2=O (configuration not stated)",
    "measure.unit": "mL/min/kg",
    "quantitative.readout": 42.4
  },
  {
    "compound": "COc1cccc2c1OCC(C(=O)NCc1ccc3c(c1)CN(C1CCC(=O)NC1=O)C3=O)=C2 (configuration not stated)",
    "measure.unit": "mL/min/kg",
    "quantitative.readout": 11.3
  },
  {
    "compound": "O=C1CCC(N2Cc3cc(CNC(=O)C4COc5ccccc5C4)ccc3C2=O)C(=O)N1 (configuration not stated)",
    "measure.unit": "mL/min/kg",
    "quantitative.readout": 54.1
  },
  {
    "compound": "O=C1CCC(N2Cc3cc(CNC(=O)C4=Cc5cccc(F)c5OC4)ccc3C2=O)C(=O)N1 (configuration not stated)",
    "measure.unit": "mL/min/kg",
    "quantitative.readout": 8.6
  }
]
